Test system: Hedgehog Signaling Pathway
Assay: SHH-induced differentiation of C3H10T1/2 cells into osteoblastic cells, intracellular alkaline phosphatase activity
Type: cell-based, mouse
Settings: Mus musculus, C3H 10T1/2, 120 h, 10 nM SHH-N, 5 days, alkaline phosphatase activity (OD405), read-out: IC50 values of compounds that inhibit Hh pathway
Experimental: The Application of SHH to Induce Pluripotent Mesenchymal Mouse Embryonic Cell C3H10T1/2 to Differentiate into Osteoblastic Cells for the Determination of the Inhibitory Activity of N-(3-(1H-benzo[d]imidazol-2-yl)-4-chlorophenyl)-2-methyl-4-((2S,6R)-2,6-dimethylmorpholino)benzamide and Analogs on Hedgehog Signaling Pathway […] After incubating for 5 days, the cells were taken out and intracellular alkaline phosphatase activity was tested. The alkaline phosphatase activity was measured as follows: […]
pIC50: −log10 of the molar value.
Kindly return 1 if reported pIC50 is no lower than 8; return 0 if it is lower.

Sample answers from the record:
Molecule	Label Class
Cc1c(C(=O)Nc2ccc(Cl)c(-c3ncc(-c4ccco4)[nH]3)c2)ccc(N2C[C@@H](C)N(C)[C@@H](C)C2)c1F	1
O=C(Nc1ccc(Cl)c(-c2nc3ccccc3[nH]2)c1)c1ccc(-c2ccccc2)cc1	0
Cc1c(C(=O)Nc2ccc(Cl)c(-c3ncc(-c4cccs4)[nH]3)c2)ccc(N2C[C@@H](C)N(C)[C@@H](C)C2)c1F	1

Is pIC50 at least 8? Consider `C[C@@H]1CN(c2ccc3c(=O)n(-c4ccc(Cl)c(-c5nc6ccccc6[nH]5)c4)cnc3c2)C[C@H](C)O1`
0

Does `Cc1cc(-c2ccc(C(F)(F)F)cc2)ccc1C(=O)Nc1ccc(Cl)c(-c2ncc(-c3ccco3)[nH]2)c1` have a reported pIC50 of at least 8?
1

Is the recorded value of pIC50 equal to or greater than 8 for this molecule? `Cc1cc(-c2ccc(C(F)(F)F)cc2)ccc1C(=O)Nc1ccc(Cl)c(-c2ncc(-c3cccs3)[nH]2)c1`
1

Check this molecule for pIC50 at or above 8: `Cc1cc(-c2ccc(C(F)(F)F)cc2)ccc1C(=O)Nc1ccc(Cl)c(-c2ncc(-c3cccnc3)[nH]2)c1`
0

Entry `Cc1cc(N2C[C@@H](C)N(C)[C@@H](C)C2)ccc1C(=O)Nc1ccc(Cl)c(-c2ncc(-c3cccs3)[nH]2)c1` : is its pIC50 no less than 8?
1
